- target: anti-CD28 scFv (VH - linker 1 - VL) (biotinylated (site not stated))
- Sequence (scFv, as listed by the source): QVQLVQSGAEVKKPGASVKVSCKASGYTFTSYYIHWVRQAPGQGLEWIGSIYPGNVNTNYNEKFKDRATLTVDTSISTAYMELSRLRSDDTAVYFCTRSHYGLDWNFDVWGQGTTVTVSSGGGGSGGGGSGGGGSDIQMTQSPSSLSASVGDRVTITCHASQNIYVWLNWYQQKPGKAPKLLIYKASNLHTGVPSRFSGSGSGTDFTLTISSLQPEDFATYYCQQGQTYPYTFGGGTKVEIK
- test: phage ELISA; biotinylated anti-CD28 scFv on neutravidin plate, clonal phage supernatant, anti-M13-HRP;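 also: before the phage were added, wells were pre-incubated with soluble CD28 protein in blocking buffer, or with blocking buffer alone, and were not washed in between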

>  <binder>
MDWCPRNLWHECFA [Phage-342 clonal phage peptide MDWCPRNLWHECFA]

>  <CD28 scFv signal>
1.97

$$$$
>  <binder>
MDWCPRDLWNWCFN [Phage-336 clonal phage peptide MDWCPRDLWNWCFN]

>  <CD28 scFv signal>
2.03

$$$$
>  <binder>
LDWCPRHLWALCFN [Phage-349 clonal phage peptide LDWCPRHLWALCFN]

>  <CD28 scFv signal>
1.78

$$$$
>  <binder>
MNWCPMHLWAECFN [Phage-363 clonal phage peptide MNWCPMHLWAECFN]

>  <CD28 scFv signal>
1.39

$$$$
>  <binder>
MDWCPRHLWVHCFS [Phage-344 clonal phage peptide MDWCPRHLWVHCFS]

>  <CD28 scFv signal>
1.91

$$$$
>  <binder>
MDWCPMFLWHECFS [Phage-360 clonal phage peptide … (as printed)]

>  <CD28 scFv signal>
1.44

$$$$
>  <binder>
MDWCPPHLWHECFF [Phage-358 clonal phage peptide MDWCPPHLWHECFF]

>  <CD28 scFv signal>
1.45

$$$$
>  <binder>
MDWCPRTLWDQCFF [Phage-339 clonal phage peptide MDWCPRTLWDQCFF]

>  <CD28 scFv signal>
1.99

$$$$
>  <binder>
MDWCPRHLWDECFN [Phage-341 clonal phage peptide MDWCPRHLWDECFN]

>  <CD28 scFv signal>
1.98

$$$$
>  <binder>
MSWCPIDLWSECFA [Phage-340 clonal phage peptide MSWCPIDLWSECFA]

>  <CD28 scFv signal>
1.99

$$$$
